Every entry's value here was drawn from the RNAGym collection of RNA variant scans (doi:10.1021/acssynbio.7b00057).

B1: Pistol ribozyme (parent)
chain: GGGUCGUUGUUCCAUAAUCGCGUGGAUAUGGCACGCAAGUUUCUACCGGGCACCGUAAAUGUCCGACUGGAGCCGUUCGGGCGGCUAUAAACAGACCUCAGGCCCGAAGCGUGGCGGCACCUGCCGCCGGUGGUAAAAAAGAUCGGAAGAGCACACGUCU

variants of: B1; experiment: aptazyme ON/OFF ratio, guanine; higher = stronger switching; co-transcriptional cleavage with and without guanine
Listing: aptazyme ON/OFF ratio of selected variants
Measured property: aptazyme ON/OFF ratio

>>> df
                 mutant_designation  number
 0       U7G U8C G9C U10G U11C C13A    1.15
 1      U7G G9C U10G U11G C12U C13A    1.15
 2                U7C U8A U11C C13G    1.06
 3            U7C U8G G9A C12A C13A    1.28
 4                U7G G9A U11C C13A    1.11
 5  U7C U8A G9U U10A U11C C12A C13G    1.17
 6            U7C U8A G9A U11A C12G     1.2
 7                U8C G9C U10G C13U    1.11
 8          G9U U10A U11C C12A C13U    1.41
 9  U7C U8G G9A U10A U11A C12A C13U    1.21
10      U8G G9A U10C U11C C12U C13A    1.04
11           U7G U8G U10C C12G C13A     1.4
12  U7C U8C G9C U10C U11A C12A C13A    1.07
13       U7C U8A G9A U11G C12U C13G    1.14
14            U7C U8A G9U U10C C13G    1.07
15  U7G U8G G9C U10A U11C C12A C13U    1.04
16                U7C G9A U10A C12G    1.18
17               U8A U10G U11A C13G    1.12
18       U7G U8A G9U U10G U11G C12U    1.15
19           U7C G9A U10G C12A C13G    1.08
20                 U7G U8G G9U C13U    1.43
21      U7A G9A U10C U11G C12G C13G    1.27
22           U7G U8C U10C C12G C13U    1.28
23           U7G U8C U10A C12U C13G    1.26
24       U7A U8A G9A U11G C12U C13U    1.26
25          G9A U10C U11G C12A C13A    1.22
26                    G9A U11C C12A    1.38
27  U7A U8C G9A U10A U11C C12G C13G    1.17
28       U7C U8G G9U U10C C12G C13A    1.28
29           U7A U8A U11C C12U C13G    1.21
30            U7A U8G G9C C12U C13U    1.21
31       U7A U8C G9C U10G U11A C12G    1.11
32                U8A G9C U11C C12U    1.09
33       U7C U8C G9C U10C U11G C13A    1.33
34           U7G G9A U10C U11C C12G    1.17
35            U7A U8C G9A U11A C12U    1.25
36      U8A G9A U10G U11C C12G C13A    1.16
37      U7A G9C U10G U11G C12U C13G    1.12
38                 U7A U8C G9U U10C    1.55
39      U7G G9U U10G U11G C12G C13G    1.17
40      U7C U8A U10A U11C C12G C13U    1.13
41           U7G G9U U10G U11C C12U    1.17
42            U7C U8C G9U U10C C12A    1.29
43           U7A G9A U10A U11G C12G    1.13
44       U7G U8C G9U U11C C12A C13A    1.36
45       U7G U8C G9U U11G C12U C13G    1.28
46          U7C U10G U11C C12U C13U    1.27
47           U8G G9U U10G U11A C12G    1.06
